Source of measurements: PubChem BioAssay (NCI)

tested on: HCT-15 colon; test: NCI tumour cell line growth inhibition, 48 h; in the data active = GI50 below about 0.43 µM; inactive = the rest
Your response should consist of one outcome taken from active, inactive

Examples with answers:
[
  {
    "Molecule": "CC[C@]12C=CCN3CC[C@@]4(c5ccc(OC)cc5N(C)[C@H]4[C@@](O)(C(=O)OC)[C@@H]1OC(=O)CCC(=O)O[C@H]1CC[C@H]4[C@@H]5CCC6=CC(=O)CC[C@@H]6[C@H]5CC[C@]14C)[C@@H]32",
    "Cat": "inactive"
  },
  {
    "Molecule": "COc1ccc(-c2nc3sccn3c2-c2ccnc(NCCNS(=O)(=O)c3ccc(C(F)(F)F)cc3)n2)cc1",
    "Cat": "inactive"
  }
]

# fetch the recorded call for COc1ccc2nc3cc([N+](=O)[O-])ccc3c(NCCO)c2c1 here inactive

And for CCN1C(=O)/C(=c2\sc3n(c2=O)C2C(NN=3)N(CC)C(=O)N2CC)c2ccccc21 (configuration not stated) ? active

Next up: C=C(C(=O)c1ccccc1)C(NC(C)(C)C)c1ccccc1 (configuration not stated) inactive

Queued: C=C(C)[C@@H]1CC[C@]2(C(=O)O)CC[C@]3(C)[C@H](CC[C@@H]4[C@@]5(C)C/C(=C/c6ccco6)C(=O)C(C)(C)[C@@H]5CC[C@]43C)[C@@H]12 inactive

Try this molecule too: Cc1cc(O)ccc1C1(c2ccc(O)cc2C)OC(=O)c2ccccc21 inactive

----------
Provide the recorded TGI for the entries that follow.
system: DU-145 prostate; assay: NCI tumour cell line growth inhibition, 48 h
Answers are plain numbers, in µM.

A selection of reference data follows.
[
  {
    "Compound": "O=C1/C(=C/c2ccc(Cl)cc2)CN(Cc2cn(CCCNc3ccnc4cc(Cl)ccc34)nn2)C/C1=C\\c1ccc(Cl)cc1",
    "TGI (µM)": 2.47
  },
  {
    "Compound": "CCOC(=O)c1sc2nc(SC)nc3c2c1NC(=O)CN3c1ccc(F)cc1",
    "TGI (µM)": 97.9
  },
  {
    "Compound": "CC(=O)OC(COc1ccc2c(c1)[n+]([O-])nc(N)[n+]2[O-])CN1CCCCC1 (stereo not given)",
    "TGI (µM)": 54.9
  }
]

Fill in: TGI of COc1ccc2nc3ccc(OC)cc3c(S(=O)Cc3ccccc3)c2c1 (stereo not given) is ___ 5.85

----------
system: T-47D breast; assay: NCI tumour cell line growth inhibition, 48 h
Please provide measured TGI for the entries that follow.

[
  {
    "Compound": "Nc1ccc(Oc2ccc(C34CC5C6CC7(c8ccc(Oc9ccc(N)cc9)cc8)CC5C(C3)C(C7)C6C4)cc2)cc1",
    "Target Desc": "T-47D breast",
    "TGI": "> 100 µM"
  },
  {
    "Compound": "COc1ccc(-c2nc3sccn3c2-c2ccnc(NCCNS(=O)(=O)c3ccc(C(F)(F)F)cc3)n2)cc1",
    "Target Desc": "T-47D breast",
    "TGI": "> 100 µM"
  },
  {
    "Compound": "Cc1cc(S(=O)(=O)Nc2nc3ccccc3c(=O)n2Cc2ccco2)c(S)cc1Cl",
    "Target Desc": "T-47D breast",
    "TGI": "81.4 µM"
  },
  {
    "Compound": "COC(=O)c1cc(/C=C/C(=O)Cc2ccccc2)cn1S(=O)(=O)c1ccccc1",
    "Target Desc": "T-47D breast",
    "TGI": "> 100 µM"
  }
]

Quick batch: TGI for everything below.
1. CO[P@@]1(=O)O[C@@H](c2ccccc2)[C@H](O)[C@@]1(O)c1ccccc1
2. NC1=NC(c2ccc(Cl)cc2)=CC(c2cccc(Cl)c2)S1 (stereo not given)
3. Cc1cc(-c2nc3cc(F)ccc3s2)ccc1N
4. Cc1nc2ccc(-n3ncc(C(=O)c4cc5ccccc5[nH]4)c3N)cc2[nH]1

["> 100 µM", "> 100 µM", "> 100 µM", "45.2 µM"]

----------
Kindly state GI50 for each of the entries shown.
test system: SNB-75 CNS; experiment: NCI tumour cell line growth inhibition, 48 h

Solved entries (count: 4):
[
  {
    "Molecule": "CCOC(=O)c1c(C)n([O-])c2cc(F)c(F)cc2[n+]1=O",
    "GI50": "1910 nM"
  },
  {
    "Molecule": "CO/N=C(/C)COc1ccc2c(c1)oc(=O)c1cc(OC)ccc12",
    "GI50": "57400 nM"
  },
  {
    "Molecule": "COc1cc2c(Nc3ccc(-c4ccc(N)cc4)cc3)ncnc2c(OC)c1OC",
    "GI50": "16600 nM"
  },
  {
    "Molecule": "CC[O-].CC[O-].O=C1C=C([O-])C(=O)c2ccccc21.O=C1C=C([O-])C(=O)c2ccccc21.[Ti+4]",
    "GI50": "4990 nM"
  }
]

Hello, I would appreciate it if you could give GI50 for each entry below.
1. Cc1ccc(NC(=S)NNC(=S)Nc2ccc(C)cc2)cc1
2. Cc1ccc(C2=NN(c3ccc(S(=O)(=O)NC(=O)NCc4ccccc4)cc3)C(c3ccc(N(C)C)cc3)C2)c(C)c1 (centres undefined)
3. COc1cccc(C(=O)NNc2nc(Cl)nc(N3CCN(C(c4ccccc4)c4ccccc4)CC3)n2)c1
4. c1cc[n+](Cc2c3ccccc3cc3c2ccc2ccccc23)cc1
5. CC(=O)Oc1ccc(C2OC(c3ccc4ccccc4c3OC(C)=O)=NN2C(C)=O)c(OC(C)=O)c1 (centres undefined)

1. 3390 nM
2. 2440 nM
3. 1510 nM
4. 1350 nM
5. 1130 nM

----------
test system: HCT-15 colon; assay: NCI tumour cell line growth inhibition, 48 h
Assay Endpoint: TGI

Here are 5 molecules together with their reported answers.
[
  {
    "Molecule": "O=C(c1ccccc1)n1cc(/C=C/[N+](=O)[O-])c2ccccc21",
    "TGI": "39.8 µM"
  },
  {
    "Molecule": "CCn1c2ccccc2c2ccc(C3C4C(=O)N(c5cccc6ccccc56)C(=O)C4ON3C(C(N)=O)c3ccccc3)cc21 (configuration not stated)",
    "TGI": "> 25 µM"
  },
  {
    "Molecule": "O=C1CCc2cc(Br)ccc2O1",
    "TGI": "> 100 µM"
  },
  {
    "Molecule": "Cc1cc(NS(=O)(=O)c2ccc(NO)cc2)no1",
    "TGI": "> 100 µM"
  },
  {
    "Molecule": "[O-]c1c2c(nn1-c1ccc(F)cc1)c1ccccc1c[n+]2Cc1ccccc1",
    "TGI": "39.1 µM"
  }
]

Quick batch: TGI for everything below.
1. Nc1ncnc2c1ccn2CC#CCO
2. NNC(=O)/C(NC(=O)c1ccccc1)=C(\N)c1cccc([N+](=O)[O-])c1
3. C[C@@H](NC1CCCC[C@@H]1O)c1ccccc1 (some centres not stated)

1. > 100 µM
2. > 100 µM
3. > 100 µM

For every item in the list below, what is its measured TGI?
1. Nc1c(F)c(F)c2c(c1F)N(CCCCCl)c1ccccc1S2
2. CC(=O)Oc1ccc2c(c1)[nH]c1c3ccc(OC(C)=O)cc3oc(=O)c21
3. C=C(C)[C@@H]1CC[C@]2(C(=O)O)CC[C@]3(C)[C@H](CC[C@@H]4[C@@]5(C)C/C(=C/c6ccco6)C(=O)C(C)(C)[C@@H]5CC[C@]43C)[C@@H]12
4. Cc1[nH]c(=O)n2c(C)nnc2c1C(=O)O
5. CCN1CCN(Cc2ccc(NC(=O)Nc3nc(-c4cc(OC)c(OC)c(OC)c4)cs3)cc2C(F)(F)F)CC1
6. O=c1[nH]c(=O)n([C@H]2C[C@@H](CO)[C@@H](O)C2)cc1I

1: > 100 µM; 2: > 100 µM; 3: 10.5 µM; 4: > 100 µM; 5: 3.55 µM; 6: > 100 µM

For each listed entry, give its TGI.
1. COc1ccccc1/C=C1\CCC(Cc2ccccc2)(CN(C)C)C1=O (configuration not stated)
2. CC(C)c1cnc(-c2cc(Cl)ccc2F)cc1Nc1ccncc1C(=O)NC(CO)CO
3. O=C1NC(c2ccc3ccccc3c2)Nc2ccccc21 (configuration not stated)
4. O=C1CCC(=O)c2ccccc2N1
5. CN1N=C(c2ccncc2)OC1c1cccc(F)c1 (configuration not stated)
6. CC(=O)N1C(c2[nH]c3ccccc3c2Cc2ccccc2)CCN1c1ccccc1 (configuration not stated)

14.4 µM
26.9 µM
> 100 µM
> 100 µM
> 100 µM
> 10 µM

Below is a list of molecules. For each, state its recorded TGI.
1. COc1ccc(C[C@H]2COC(=O)[C@@H]2Cc2ccc(Br)cc2)cc1OC
2. CC(C)CCNC(=O)c1ccc(CNC(=O)/C=C/c2ccc3ccccc3c2)cc1

["> 100 µM", "> 100 µM"]
